- test_description: Pharmacokinetics of compound I-1 in the dog by intravenous, oral gavage and oral capsule routes
- Type: in vivo, beagle dogs
- condition_set: male, beagle, dog, plasma, iv, 3 mg/kg, Group 1: IV 3 mg/kg; 0.5 h; Subject 3; read-out: Concentration at time point
measure_name: concentration at 0.5 h (ng/mL)
Output spec: scalar in ng/mL, unitless text.

// CC(C)(O)c1nc2ccccc2cc1N [I-1] : concentration at 0.5 h value = 1570

---

- test_description: Phase 1 clinical trial, multiple ascending dose (MAD) pharmacokinetics
- Type: in vivo, human
- condition_set: human, in vivo, po, 150 mg, oral 150 mg BID; Day 10; read-out: Mean AUC0-12
measure_name: AUC(0-t) (ng·h/mL)
Output spec: scalar in ng·h/mL, unitless text.

// CC(C)(O)c1nc2ccccc2cc1N : AUC(0-t) value = 1170

All values here come from patent US12064516B2.
